Assay: ATG_SREBP_CIS: Attagene CIS-FACTORIAL HepG2 Assay for human Sterol Regulatory Element Binding (SREBP) (AID 2282962)
Conditions: HepG2 Attagene cis-factorial SREBP reporter, mRNA; actives raise or lower the signal
Description: ATG_CIS is a cell-based, multiplexed-readout assay that uses HepG2, a human liver cell line, with measurements taken at 24 hours after chemical dosing in a 24-well plate.ATG_SREBP_CIS is one of 52 assay component(s) measured or calculated from the ATG_CIS assay. […] This assay endpoint, ATG_SREBP_CIS, was analyzed with bidirectional fitting relative to DMSO as the negative control and baseline of activity. […]
The source made the active and inactive calls. Rule for the calls: active = hit-call score of the fitted dose curve at least 0.9, where 1 is the maximum; inactive = score below 0.9.
The categories you may choose from are t = active, f = inactive

These recorded examples may help you get a feel for the data.
* CCOP(=S)(OCC)Oc1cc(C)nc(C(C)C)n1 | t
* CCc1cccc(CC)c1N(COC)C(=O)CCl | f

Request: Lab log entry: CCC(=NOC/C=C/Cl)C1=C(O)CC(C2CCOCC2)CC1=O (stereo not given) — outcome as called in the assay?
Response: f

Request: Follow-up item: `CNC(=O)ON=C(SC)C(=O)N(C)C`
Response: t

Request: Now the same for COP(=O)(OC)C(O)C(Cl)(Cl)Cl (stereo not given)
Response: f

Request: Entry CC(COc1ccc(Oc2ccccc2)cc1)Oc1ccccn1 (stereo not given) please
Response: f

###

read-out: Cytochrome P450 2C9 (Homo sapiens); assay: CLD_CYP2C9_48hr: CellzDirect (CLD) Gene Expression Assay for xenobiotic metabolism (CYP2C9) at 48 hours (AID 2283701)
Inconclusive results are not listed. Activity calls are given as the source filed them. Rule for the calls: active = hit-call score of the fitted dose curve at least 0.9, where 1 is the maximum; inactive = score below 0.9.
measure: outcome

In the examples that follow, each entry is paired with its recorded outcome.
- C#CCC1=C(C)C(OC(=O)C2C(C=C(C)C)C2(C)C)CC1=O (stereo unspecified): inactive
- CSc1nnc(C(C)(C)C)c(=O)n1N: inactive
- CCOP(=O)(NC(C)C)Oc1ccc(SC)c(C)c1 (stereo unspecified): inactive
- CCCCSP(=O)(SCCCC)SCCCC: inactive
- COP(=O)(OC)SCn1c(=O)oc2cc(Cl)cnc21: inactive
- CC(C)[C@H](C(=O)O[C@H](C#N)c1cccc(Oc2ccccc2)c1)c1ccc(Cl)cc1: inactive
- CC(=NC#N)N(C)Cc1ccc(Cl)nc1: inactive
- CCOP(=O)(SC(C)CC)N1CCSC1=O (stereo unspecified): inactive
- Cc1cc(C2CC2)nc(Nc2ccccc2)n1: inactive
- CSc1nc(NC(C)C)nc(NC(C)C)n1: inactive

Value sought for every listed molecule: outcome.
1. CON=C(C(=O)OC)c1ccccc1CON=C(C)c1cccc(C(F)(F)F)c1
2. CNc1cnn(-c2cccc(C(F)(F)F)c2)c(=O)c1Cl
3. CCOP(=S)(OCC)Oc1ccc2c(C)c(Cl)c(=O)oc2c1
4. CCCSP(=O)(OCC)Oc1ccc(Br)cc1Cl (stereo unspecified)
5. CCOP(=S)(OCC)OC(Cl)C(Cl)(Cl)Cl (stereo unspecified)
6. CC(C)N(C(=O)SCC(Cl)=C(Cl)Cl)C(C)C

Response:
inactive
inactive
inactive
inactive
inactive
inactive

###

test: APR_HepG2_MicrotubuleCSK_72hr: Apredica 72-hour HepG2 Assay for Microtubule CSK Stabilty (AID 2282919); conditions: HepG2 microtubule cytoskeleton, high-content imaging, actives raise or lower the signal
The source made the active and inactive calls. How the source made its calls: active means hit-call score of the fitted dose curve at least 0.9, where 1 is the maximum; inactive means score below 0.9.
measure: AC50

- Cc1cc(C2CC2)nc(Nc2ccccc2)n1: 56.9 µM (active)
- CCc1cnc(C2=NC(C)(C(C)C)C(=O)N2)c(C(=O)O)c1 (stereo unspecified): inactive
- CSc1nc(NC(C)C)nc(NC(C)C)n1: inactive
- COc1ccc(C(=CC(=O)N2CCOCC2)c2ccc(Cl)cc2)cc1OC: inactive
- COc1cccc(C(=O)NN(C(=O)c2cc(C)cc(C)c2)C(C)(C)C)c1C: inactive
- CN1COCN(Cc2cnc(Cl)s2)C1=N[N+](=O)[O-]: inactive

For every item below, please supply its AC50.
1. CCC(=NOC/C=C/Cl)C1=C(O)CC(C2CCOCC2)CC1=O (stereo unspecified)
2. CC(COc1ccc(Oc2ccccc2)cc1)Oc1ccccn1 (stereo unspecified)
3. CNc1cnn(-c2cccc(C(F)(F)F)c2)c(=O)c1Cl
4. CC(C1CC1)C(O)(Cn1cncn1)c1ccc(Cl)cc1 (stereo unspecified)
5. O=[N+]([O-])c1cc(C(F)(F)F)c(Cl)c([N+](=O)[O-])c1Nc1ncc(C(F)(F)F)cc1Cl

Response:
["inactive", "82.3 µM (active)", "inactive", "inactive", "100 µM (active)"]

Data provenance is PubChem BioAssay (EPA / NIEHS).
